Reference source: the RNAGym collection of RNA variant scans (doi:10.1073/pnas.2313332121)

Below, each entry is listed alongside its reported polymerase ribozyme fitness (log ratio).
B1: TPR 5TU (parent)
chain: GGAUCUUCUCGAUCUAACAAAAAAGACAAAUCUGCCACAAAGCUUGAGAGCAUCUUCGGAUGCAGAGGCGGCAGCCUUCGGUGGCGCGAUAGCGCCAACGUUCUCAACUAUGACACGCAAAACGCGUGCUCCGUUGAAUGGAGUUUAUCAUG

Variants of: B1
TEST: polymerase ribozyme fitness, log enrichment relative to wild type (log ratio); higher = more active; in vitro selection for triplet polymerase activity
This sample holds only a part of the variants without activity.

Sample records with polymerase ribozyme fitness (log ratio):
[
  {
    "MUTATION_DESCRIPTOR": "A30C C75G U78G C95G",
    "polymerase ribozyme fitness (log ratio)": "≤ -4.2"
  },
  {
    "MUTATION_DESCRIPTOR": "C14A G50A C85G C96A",
    "polymerase ribozyme fitness (log ratio)": "≤ -4.2"
  },
  {
    "MUTATION_DESCRIPTOR": "U13A C76U C105G C114U",
    "polymerase ribozyme fitness (log ratio)": "≤ -4.2"
  },
  {
    "MUTATION_DESCRIPTOR": "U7C C10U A40C C85A A89C G100A C116A",
    "polymerase ribozyme fitness (log ratio)": "≤ -4.2"
  }
]

Query: For A21G C57A G74A C76G C87U G124U , write its polymerase ribozyme fitness (log ratio).
Response: ≤ -4.2
